target under test: μ-opioid receptor (Homo sapiens (Human))
measurement protocol: μ-opioid receptor [35S]GTPγS functional assay (HEK)
Format: biochemical
experimental parameters: HEK; GTPγS; relative to DAMGO
endpoint name: Emax (%)
Write down the numeric answer in % and omit the unit.

The examples below pair each entry with its known result.
>>> df
                                   compound                         target_under_test  endpoint_name  result
0  COc1ccc2c(c1)[C@]13CCN(CC4CC4)[C@H](C2)[C@]1(O)C[C@H]1CC(=O)N[C@H]1C3  μ-opioid receptor (Homo sapiens (Human))           Emax    25.8
1  COc1ccc2c(c1)[C@]13CCN(CC4CC4)[C@H](C2)[C@]1(O)C[C@H]1CC(=O)N(CC(C)C)[C@H]1C3  μ-opioid receptor (Homo sapiens (Human))           Emax    13.2
2  COc1ccc2c(c1)[C@]13CCN(CC4CC4)[C@H](C2)[C@]1(O)CC1=CC(=O)NC1C3 (stereo partly shown)  μ-opioid receptor (Homo sapiens (Human))           Emax   -0.33
3  O=C1C[C@@H]2C[C@@]3(O)[C@H]4Cc5ccc(O)cc5[C@@]3(CCN4CC[C@@]3(c4ccccn4)CCOC4(CCCC4)C3)C[C@@H]2N1  μ-opioid receptor (Homo sapiens (Human))           Emax     4.5
4  COc1ccc2c(c1)[C@]13CCN(C)[C@H](C2)[C@]1(O)C[C@H]1CC(=O)N[C@H]1C3  μ-opioid receptor (Homo sapiens (Human))           Emax     106

Asked: Record `O=C1C[C@@H]2C[C@@]3(O)[C@H]4Cc5ccc(O)cc5[C@@]3(CCN4CC3CCOCC3)C[C@@H]2N1` : what is its Emax with μ-opioid receptor (Homo sapiens (Human))?
Given back: 7.33

Asked: Lab note: need Emax for `CCN1C(=O)C[C@@H]2C[C@@]3(O)[C@H]4Cc5ccc(OC)cc5[C@@]3(CCN4CC3CC3)C[C@@H]21` on μ-opioid receptor (Homo sapiens (Human)), anyone have it?
Given back: 36.4

* * *

target under test: μ-opioid receptor (Homo sapiens (Human))
measurement protocol: μ-opioid receptor [35S]GTPγS functional assay (HEK)
Assay type: biochemical
endpoint name: EC50

Use these answered entries as a reference point.
In [3]: df
Out[3]:
                                   molecule  endpoint_name      result
0  O=C1C[C@@H]2C[C@@]3(O)[C@H]4Cc5ccc(O)cc5[C@@]3(CCN4CC3CC3)C[C@@H]2N1           EC50  > 20000 nM
1  CN1CC[C@]23C[C@@H]4OC(=O)N[C@H]4C[C@@]2(O)[C@H]1Cc1ccc(O)cc13           EC50     1310 nM
2  O=C1C[C@@H]2C[C@@]3(O)[C@H]4Cc5ccc(O)cc5[C@@]3(CCN4CC3CC3)C[C@@H]2N1CC1CC1           EC50  > 20000 nM
3  CCN1C(=O)C[C@@H]2C[C@@]3(O)[C@H]4Cc5ccc(O)cc5[C@@]3(CCN4CC3CC3)C[C@@H]21           EC50     4.18 nM

Asked: Form: Entry = O=C1C=C2C[C@@]3(O)[C@H]4Cc5ccc(O)cc5[C@@]3(CCN4CC3CC3)CC2N1 (some centres unmarked) | System = μ-opioid receptor (Homo sapiens (Human)) | EC50 = ____
Given back: > 20000 nM

Where these numbers come from: patent US10435406B2
